Molecular target: T1, Bone sialoprotein-binding protein (Bbp) residues 273-598 (N2 and N3 domains) (S. aureus, UniProt Q14U76 273-598)
T1 chain: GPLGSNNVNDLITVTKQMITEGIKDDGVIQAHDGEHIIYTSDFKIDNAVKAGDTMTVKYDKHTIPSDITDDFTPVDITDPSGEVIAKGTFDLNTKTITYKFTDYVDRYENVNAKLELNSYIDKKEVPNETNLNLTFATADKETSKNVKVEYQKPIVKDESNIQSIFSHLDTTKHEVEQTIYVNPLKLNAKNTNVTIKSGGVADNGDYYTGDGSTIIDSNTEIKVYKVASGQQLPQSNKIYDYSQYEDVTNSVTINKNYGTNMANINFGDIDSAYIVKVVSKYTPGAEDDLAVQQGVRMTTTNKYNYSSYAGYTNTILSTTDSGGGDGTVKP
Assay: SPR
Measured endpoint: Kd (nM)
Please respond with the number in nM and leave the unit unwritten.

Input line: Which Kd value is on record for SKQFTSSTSYNRGDS [Fibrinogen α chain peptide, residues 561-575] ?
Output line: 1620
